All values here come from ChEMBL document CHEMBL3046386.

measurement-notes: Distribution coefficient, log D of the compound
experimental-context: octanol/water
Returns one of Met or Not met; Met when logD is >= -0.03.

>>> df
                                   compound    label
0            Cc1ccc(OP2(=O)NCC(C)(C)CN2)cc1      Met
1   CC1(C)CNP(=O)(Nc2ccc(S(N)(=O)=O)cc2)NC1  Not met
2  CC1(C)CNP(=O)(NC(=O)c2ccccc2[N+](=O)[O-])NC1  Not met
3  O=P1(N(CCCl)CCCl)NCCCO1 (stereo unspecified) [CYCLOPHOSPHAMIDE ANHYDROUS]      Met
